Reference source for all entries: paper PMC8497620

target entity: C. neoformans Sgl1 (Cryptococcus neoformans var. grubii, UniProt J9W473)
Sequence (J9W473 entry or part of it): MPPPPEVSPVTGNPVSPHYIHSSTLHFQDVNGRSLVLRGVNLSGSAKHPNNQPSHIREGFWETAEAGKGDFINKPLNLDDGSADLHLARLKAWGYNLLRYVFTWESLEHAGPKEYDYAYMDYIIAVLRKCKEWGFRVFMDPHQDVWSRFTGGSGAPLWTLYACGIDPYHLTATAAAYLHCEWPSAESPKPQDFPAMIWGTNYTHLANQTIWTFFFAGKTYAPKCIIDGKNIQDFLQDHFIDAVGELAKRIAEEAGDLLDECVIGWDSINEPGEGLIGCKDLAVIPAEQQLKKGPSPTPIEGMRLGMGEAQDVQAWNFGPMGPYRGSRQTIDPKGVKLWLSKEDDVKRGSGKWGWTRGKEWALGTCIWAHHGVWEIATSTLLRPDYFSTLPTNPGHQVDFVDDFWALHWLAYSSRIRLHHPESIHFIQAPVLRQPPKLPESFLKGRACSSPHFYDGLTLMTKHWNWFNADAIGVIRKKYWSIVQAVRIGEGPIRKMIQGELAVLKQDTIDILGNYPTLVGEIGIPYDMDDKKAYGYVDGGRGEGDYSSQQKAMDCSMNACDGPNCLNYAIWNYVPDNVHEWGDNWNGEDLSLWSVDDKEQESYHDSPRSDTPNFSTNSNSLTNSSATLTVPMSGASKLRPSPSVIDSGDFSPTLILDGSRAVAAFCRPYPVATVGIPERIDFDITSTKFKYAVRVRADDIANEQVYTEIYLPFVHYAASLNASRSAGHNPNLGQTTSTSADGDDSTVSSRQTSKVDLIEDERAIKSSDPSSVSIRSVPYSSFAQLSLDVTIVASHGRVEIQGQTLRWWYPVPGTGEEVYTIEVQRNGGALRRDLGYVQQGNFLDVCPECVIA
procedure text: H/D exchange mass spectrometry mapping of disordered regions
condition parameters: H/D exchange MS of C. neoformans Sgl1; per peptide (amino acids Start-End, Sequence); Fig S2a
Decision: % Deuterium incorporation, Average beneath 10% gives Met; % Deuterium incorporation, Average meeting or exceeding 10% gives Not met.

Does `LTVPMSGASKLRPSPSVIDSGDFSPTL` have % Deuterium incorporation, Average strictly under 10%?
Not met

I'd appreciate it if you could check whether `NASRSAGHNPNLGQTTSTSADGDD` has % Deuterium incorporation, Average smaller than 10%.
Not met

Confirm or reject: % Deuterium incorporation, Average of `AVLKQDTIDILGNYPTL` lies strictly below 10%
Not met

State whether 10% exceeds % Deuterium incorporation, Average recorded for `RVFMDPHQDV` .
Met

Dear colleague, could you confirm whether % Deuterium incorporation, Average of `VSIRSVPYSSF` falls below 10%? Thanks.
Not met

Take the substance `SSRIRLHHPESIHF` and say whether its % Deuterium incorporation, Average is less than 10%.
Met

Take the substance `VIGWDSINEPGEGL` and say whether its % Deuterium incorporation, Average is less than 10%.
Met

Problem: For the substance `DAIGVIRKKYWSIVQA` , is % Deuterium incorporation, Average under 10%?
Not met

I'd appreciate it if you could check whether `CKDLAVIPAEQQLKKGPSPTPIEG` has % Deuterium incorporation, Average smaller than 10%.
Not met

Record `EIYLPFVHY` : is its % Deuterium incorporation, Average strictly below 10%?
Met

Problem: For the substance `YVDGGRGEGDYSSQ` , is % Deuterium incorporation, Average under 10%?
Not met

Please indicate whether the reported % Deuterium incorporation, Average of `RWWYPVPGTGEEV` is strictly below 10%.
Not met

Hello, is % Deuterium incorporation, Average of the following substance strictly smaller than 10%? `EIATSTL`
Not met

Given the entry `IRKKYWSIVQAV` , would its reported % Deuterium incorporation, Average be below 10%?
Not met

Could you please tell me whether % Deuterium incorporation, Average recorded for `AVLKQDTID` is less than 10%?
Not met

Take the substance `AKRIAEEAGDL` and say whether its % Deuterium incorporation, Average is less than 10%.
Met

Dear colleague, could you confirm whether % Deuterium incorporation, Average of `TWESLEHAGPKEYD` falls below 10%? Thanks.
Met

Item `YTHLANQTIWTF` : % Deuterium incorporation, Average beneath 10%, strictly?
Met

---

target entity: C. neoformans Sgl1 (Cryptococcus neoformans var. grubii, UniProt J9W473)
procedure text: H/D exchange mass spectrometry mapping of disordered regions
condition parameters: H/D exchange MS of C. neoformans Sgl1; per peptide (amino acids Start-End, Sequence); Fig S2a
I'd be grateful if you could share measured % Deuterium incorporation, Average for these entries.
The answer is to be given in %; state only the numeric part.

The sequence `WALHWLAY` showed % Deuterium incorporation, Average equal to 4.9

So for `IEDERAIKSSDPSSVSIRSVPYSSF` , the logged % Deuterium incorporation, Average turned out to be 100.4

Given item `IKSSDPSSVSIRSVPYSSF` , the value recorded as its % Deuterium incorporation, Average is 106.5

Documented % Deuterium incorporation, Average of `RGVNLSGSAKHPNNQPSH` : 44.0

Memo: `VIRKKYWSIVQA` , reported % Deuterium incorporation, Average: 46.8

get_value(item= `PVTGNPVSPHYIHSSTLHF` , readout=% Deuterium incorporation, Average) returns 30.4

Value of measured % Deuterium incorporation, Average for the entry `SYHDSPRSDTPNF` : 96.9

Memo: `IQAPVLRQPPKLPESF` , reported % Deuterium incorporation, Average: 36.0

Entry `KKAYGYVDGGRGEGDYSSQQKAMD` — recorded % Deuterium incorporation, Average = 29.0

Lab note: measured % Deuterium incorporation, Average of `FCRPYPVAT` was 4.6

Value of measured % Deuterium incorporation, Average for the entry `WNFGPMGPYRGSRQTIDPKG` : 43.4

sequence `ILGNYPTL` , % Deuterium incorporation, Average observed: 27.3

So for `IKSSDPSS` , the logged % Deuterium incorporation, Average turned out to be 106.2

// % Deuterium incorporation, Average value for `NASRSAGHNPNLGQTTSTSADGDDST` : 100.5

GET /value?item= `NYVPDNVHEWGDNW` &field=% Deuterium incorporation, Average returns 32.4

Measured % Deuterium incorporation, Average, `TVPMSGASKLRPSPSV` : 90.4

Lab note: measured % Deuterium incorporation, Average of `VGELAKRIAEEAGDL` was 5.8

// % Deuterium incorporation, Average lookup, sequence = `RRDLGYVQQGNF` , result: 98.0
